Cited source for all entries: the supplement of paper PMC10567573

B1: KRT34 (parent)
chain: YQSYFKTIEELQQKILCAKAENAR

- Variants of: B1
- METHOD SUMMARY: protein stability index of a GFP-peptide fusion (GPS, HEK-293T) (PSI 1-6); higher = more stable;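 further: lentivirally expressed fusions sorted by FACS into six bins by GFP to DsRed ratio, PSI derived from sequencing read proportions per bin multiplied by bin number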
- REPORTED CONDITIONS: c terminus: a fixed tail appended
MEASUREMENT NAME: protein stability index

E10N = 2.19
T7S = 3.16
N22T = 2.4
A18I = 2.04
E10Y = 2.74
Q13P = 1.78
Y1C = 2.23
E21A = 2.93
E21T = 2.05
A18G = 1.78
E9V = 3.47
R24D = 1.16
Q2E = 3.07
K14N = 1.53
R24I = 2.17
L11W = 1.93
S3G = 1.85
Q2H = 3.43
R24P = 1.57
R24H = 2.2
K6V = 2.83
E9S = 1.99
